The following binders are listed with their measured EC50 Fold Change (+BP/-BP), hIL-18 reporter assay values.
# TARGET ENTITY: T1, hIL-18BP-hFc (human, UniProt O95998 31-194, limits assumed)
# T1 sequence (looked up): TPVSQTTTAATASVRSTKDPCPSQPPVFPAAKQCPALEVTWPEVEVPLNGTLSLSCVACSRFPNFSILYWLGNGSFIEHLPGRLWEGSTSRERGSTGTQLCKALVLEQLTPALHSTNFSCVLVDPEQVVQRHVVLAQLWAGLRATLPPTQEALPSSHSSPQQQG
# PROCEDURE DETAILS: cell-based or functional assay
QUANTITY NAME: EC50 Fold Change (+BP/-BP), hIL-18 reporter assay (fold)

BINDER: IL-18 variant polypeptide M23 (ligand) YFPKLRSKLSVIRNLNDQVLFIDQGNRPLFEDMTDSDCRDNAPRTIFIISMYKYSTRRGMAVTISVKCEKISTLSCENKIISFKEMNPPDNIKDTKSDIIFFQRSVPGHDNKMQFESSSYEGYFLACEKERDLFKLILKKEDELGDRSIMFTVQNED
EXPERIMENTAL RESULT: 1.75

BINDER: IL-18 variant polypeptide M35 (ligand) YFPKLRSKLSVIRNLNDQVLFIDQGNRPLFEDMTDSDCRDNAPRTIFIISMYKGSGARGMAVTISVKCEKISTLSCENKIISFKEMNPPDGIKDTKSDIIFFQRSVPGHDNKMQFESSSYEGYFLACEKERDLFKLILKKEDELGDRSIMFTVQNED
EXPERIMENTAL RESULT: 0.82

BINDER: IL-18 variant polypeptide M20 (ligand) YFPKLRSKLSVIRNLNDQVLFIDQGNRPLFEDMTDSDCRDNAPRTIFIISMYKSSRSRGMAVTISVKCEKISTLSCENKIISFKEMNPPDGIKDTKSDIIFFQSSVPGHDNKMQFESSSYEGYFLACEKERDLFKLILKKEDELGDRSIMFTVQNED
EXPERIMENTAL RESULT: 0.23

BINDER: IL-18 variant polypeptide MM4 (ligand) YFPKLRSKLSVIRNLNDQVLFIDQGNRPLFEDMTDSDCRDNAPRTIFIISMYKLSTIRGMAVTISVKCEKISTLSCENKIISFKEMNPPDGIKDTKSDIIFFQRSVPGHDNKMQFESSSYEGYFLACEKERDLFKLILKKEDELGDRSIMFTVQNED
EXPERIMENTAL RESULT: 3.31

BINDER: IL-18 variant polypeptide LM3 (ligand) YFPKLRSKLSIIRNLNDQVLFIDQGNRPLFEDMTDSDCRDNAPRTIFIISMYKGSGARGMAVTISVKCEKISTLSCENKIISFKEMNPPDGIKDTKSDIIFFQRSVPGHDNKMQFESSSYEGYFLACEKERDLFKLILKKEDELGDRSIMFTVQNED
EXPERIMENTAL RESULT: 1.33

BINDER: IL-18 variant polypeptide M29 (ligand) YFPKLMSKLSVIRNLNDQVLFIDQGNRPLFEDMTDSDCRDNAPRTIFIISMYKFSDRRGMAVTISVKCEKISTLSCENKIISFKEMNPPDPIKDTKSDIIFFQRSVPGHDNKMQFESSSYEGYFLACEKERDLFKLILKKEDELGDRSIMFTVQNED
EXPERIMENTAL RESULT: 0.4

BINDER: IL-18 variant polypeptide MM5 (ligand) YFGKLGSKLSVIRNLNDQVLFIDQGNRPLFEDMTDSDCRDNAPRTIFIISMYKLSTERGMAVTISVKCEKISTLSCENKIISFKEMNPPDGIKDTKSDIIFFQSSVPGHDNKMQFESSSYEGYFLACEKERDLFKLILKKEDELGDRSIMFTVQNED
EXPERIMENTAL RESULT: 2.86
